- system tested: Proteasome Macropain subunit MB1 (Homo sapiens)
- Sequence (whole entry): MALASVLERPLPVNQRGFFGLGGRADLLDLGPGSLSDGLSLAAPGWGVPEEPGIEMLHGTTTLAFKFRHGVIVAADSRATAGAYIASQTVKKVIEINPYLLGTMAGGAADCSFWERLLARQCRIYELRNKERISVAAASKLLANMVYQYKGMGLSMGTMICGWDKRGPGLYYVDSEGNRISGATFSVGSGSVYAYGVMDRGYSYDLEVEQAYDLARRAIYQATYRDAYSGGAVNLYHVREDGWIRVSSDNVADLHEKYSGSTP
- method: Displacement of fluorescent labeled MV151 from 26S proteasome beta 5 in human HEK293 cell lysate assessed as residual activity at 100 uM after 1 hr by SDS-PAGE
- Type: cell-free
reported metric: Activity
Write down the value, and be sure its unit follows.

{"chemical string": "CC(C)C[C@H](NC(=O)[C@H](Cc1cc(C(F)(F)F)cc(C(F)(F)F)c1)NC(=O)[C@H](Cc1cc(C(F)(F)F)cc(C(F)(F)F)c1)NC(=O)[C@H](Cc1ccccc1)N=[N+]=[N-])C(=O)[C@@]1(C)CO1", "Activity": "31%"}
{"chemical string": "CC(C)C[C@H](NC(=O)[C@H](Cc1cc(C(F)(F)F)cc(C(F)(F)F)c1)NC(=O)[C@H](Cc1ccccc1)NC(=O)[C@H](Cc1ccccc1)N=[N+]=[N-])C(=O)[C@@]1(C)CO1", "Activity": "2.6%"}
{"chemical string": "CC(C)C[C@H](NC(=O)[C@H](Cc1c(F)c(F)c(F)c(F)c1F)NC(=O)[C@H](Cc1c(F)c(F)c(F)c(F)c1F)NC(=O)[C@H](Cc1ccccc1)N=[N+]=[N-])C(=O)[C@@]1(C)CO1", "Activity": "7.4%"}
{"chemical string": "CC(C)C[C@H](NC(=O)[C@H](Cc1ccccc1)NC(=O)[C@H](Cc1c(F)c(F)c(F)c(F)c1F)NC(=O)[C@H](Cc1ccccc1)N=[N+]=[N-])C(=O)[C@@]1(C)CO1", "Activity": "0.83%"}

Pending compound:
Query: Hi! What's the reported Activity for `CC(C)C[C@H](NC(=O)[C@H](Cc1ccccc1)NC(=O)[C@H](Cc1cc(C(F)(F)F)cc(C(F)(F)F)c1)NC(=O)[C@H](Cc1ccccc1)N=[N+]=[N-])C(=O)[C@@]1(C)CO1` on Proteasome Macropain subunit MB1 (Homo sapiens)?
Response: 3%

* * *

Activity by entry:
- system tested: Proteasome Macropain subunit (Homo sapiens) (UniProt P49721)
- Sequence (P49721 whole entry): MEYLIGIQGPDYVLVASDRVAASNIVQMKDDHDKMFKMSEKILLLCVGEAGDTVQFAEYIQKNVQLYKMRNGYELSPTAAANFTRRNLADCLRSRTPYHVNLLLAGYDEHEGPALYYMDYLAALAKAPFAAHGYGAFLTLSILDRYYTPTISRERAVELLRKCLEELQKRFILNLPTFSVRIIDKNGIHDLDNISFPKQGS
- method: Displacement of fluorescent labeled MV151 from 26S proteasome beta 2 in human HEK293 cell lysate assessed as residual activity at 1 uM after 1 hr by SDS-PAGE
- Type: cell-free
Give a bare numeral; the unit % is implied.

Example cases with answers are listed next.
{"chemical string": "CC(C)C[C@H](NC(=O)[C@H](Cc1ccccc1)NC(=O)[C@H](Cc1c(F)c(F)c(F)c(F)c1F)NC(=O)[C@H](Cc1ccccc1)N=[N+]=[N-])C(=O)[C@@]1(C)CO1", "reported metric": "Activity", "numeric result": 2.9}
{"chemical string": "CC(C)C[C@H](NC(=O)[C@H](Cc1c(F)c(F)c(F)c(F)c1F)NC(=O)[C@H](Cc1c(F)c(F)c(F)c(F)c1F)NC(=O)[C@H](Cc1ccccc1)N=[N+]=[N-])C(=O)[C@@]1(C)CO1", "reported metric": "Activity", "numeric result": 20.4}
{"chemical string": "CC(C)C[C@H](NC(=O)[C@H](Cc1ccccc1)NC(=O)[C@H](Cc1cc(C(F)(F)F)cc(C(F)(F)F)c1)NC(=O)[C@H](Cc1ccccc1)N=[N+]=[N-])C(=O)[C@@]1(C)CO1", "reported metric": "Activity", "numeric result": 3.1}
{"chemical string": "CC(C)C[C@H](NC(=O)[C@H](Cc1cc(C(F)(F)F)cc(C(F)(F)F)c1)NC(=O)[C@H](Cc1ccccc1)NC(=O)[C@H](Cc1ccccc1)N=[N+]=[N-])C(=O)[C@@]1(C)CO1", "reported metric": "Activity", "numeric result": 4.3}

Query: Reported Activity, compound `CC(C)C[C@H](NC(=O)[C@H](Cc1cc(C(F)(F)F)cc(C(F)(F)F)c1)NC(=O)[C@H](Cc1cc(C(F)(F)F)cc(C(F)(F)F)c1)NC(=O)[C@H](Cc1ccccc1)N=[N+]=[N-])C(=O)[C@@]1(C)CO1` : ____
Response: 48

* * *

- system tested: Proteasome Macropain subunit (Homo sapiens) (UniProt P49721)
- method: Inhibition of 26S proteasome beta 2 in human HEK293 cell lysate assessed as residual activity at 1.5 uM after 1 hr
- Format: cell-free
reported metric: Activity (%)
Report as a plain number; the unit % is understood.

Answered examples (3):
{"molecule": "CC(C)C[C@H](NC(=O)[C@H](Cc1ccccc1)NC(=O)[C@H](Cc1c(F)c(F)c(F)c(F)c1F)NC(=O)[C@H](Cc1ccccc1)N=[N+]=[N-])C(=O)[C@@]1(C)CO1", "unit text": "%", "numeric result": 127}
{"molecule": "CC(C)C[C@H](NC(=O)[C@H](Cc1cc(C(F)(F)F)cc(C(F)(F)F)c1)NC(=O)[C@H](Cc1ccccc1)NC(=O)[C@H](Cc1ccccc1)N=[N+]=[N-])C(=O)[C@@]1(C)CO1", "unit text": "%", "numeric result": 97.3}
{"molecule": "CC(C)C[C@H](NC(=O)[C@H](Cc1ccccc1)NC(=O)[C@H](Cc1ccccc1)NC(=O)[C@H](Cc1ccccc1)N=[N+]=[N-])C(=O)[C@@]1(C)CO1", "unit text": "%", "numeric result": 37}

Query: Recorded Activity of CC(C)C[C@H](NC(=O)[C@H](Cc1c(F)c(F)c(F)c(F)c1F)NC(=O)c1cnccn1)B1OC2C[C@@H]3C[C@@H](C3(C)C)[C@]2(C)O1 (some centres not stated) , please.
Response: 135

Query: May I ask what Activity has been recorded for `CC(C)C[C@H](NC(=O)[C@H](Cc1c(F)c(F)c(F)c(F)c1F)NC(=O)[C@H](Cc1ccccc1)NC(=O)[C@H](Cc1ccccc1)N=[N+]=[N-])C(=O)[C@@]1(C)CO1` ?
Response: 84.2

Query: Bench note: what Activity did CC(C)C[C@H](NC(=O)[C@H](Cc1cc(C(F)(F)F)cc(C(F)(F)F)c1)NC(=O)c1cnccn1)B1OC2C[C@@H]3C[C@@H](C3(C)C)[C@]2(C)O1 (some centres not stated) show?
Response: 78.5

Query: Return reported Activity; argument: `CC(C)C[C@H](NC(=O)[C@H](Cc1ccccc1)NC(=O)[C@H](Cc1cc(C(F)(F)F)cc(C(F)(F)F)c1)NC(=O)[C@H](Cc1ccccc1)N=[N+]=[N-])C(=O)[C@@]1(C)CO1`
Response: 113

* * *

- system tested: Proteasome Macropain subunit MB1 (Homo sapiens)
- method: Displacement of fluorescent labeled MV151 from 26S proteasome beta 5 in human HEK293 cell lysate assessed as residual activity at 1 uM after 1 hr by SDS-PAGE
- Format: cell-free
Below is a list of entries, each paired with its recorded Activity value.
Please respond with the number in % and leave the unit unwritten.

{"chemical string": "CC(C)C[C@H](NC(=O)[C@H](Cc1cc(C(F)(F)F)cc(C(F)(F)F)c1)NC(=O)[C@H](Cc1cc(C(F)(F)F)cc(C(F)(F)F)c1)NC(=O)[C@H](Cc1ccccc1)N=[N+]=[N-])C(=O)[C@@]1(C)CO1", "Activity [%]": 79}

Query: Please report the recorded Activity for `CC(C)C[C@H](NC(=O)[C@H](Cc1ccccc1)NC(=O)[C@H](Cc1c(F)c(F)c(F)c(F)c1F)NC(=O)[C@H](Cc1ccccc1)N=[N+]=[N-])C(=O)[C@@]1(C)CO1` .
Response: 89.1

Query: Fill blank: measured Activity of the compound `CC(C)C[C@H](NC(=O)[C@H](Cc1c(F)c(F)c(F)c(F)c1F)NC(=O)[C@H](Cc1ccccc1)NC(=O)[C@H](Cc1ccccc1)N=[N+]=[N-])C(=O)[C@@]1(C)CO1` is ____.
Response: 11.6

* * *

Measured Activity, listed per entry.
- system tested: Proteasome Macropain subunit (Homo sapiens)
- method: Inhibition of 26S proteasome beta 2 in human HEK293 cell lysate assessed as residual activity at 0.167 uM after 1 hr
- Format: cell-free
Provide only the numeric value, understood in %.

For orientation, consider the following solved cases.
{"compound": "CC(C)C[C@H](NC(=O)[C@H](Cc1c(F)c(F)c(F)c(F)c1F)NC(=O)[C@H](Cc1ccccc1)NC(=O)[C@H](Cc1ccccc1)N=[N+]=[N-])C(=O)[C@@]1(C)CO1", "numeric result": 112}
{"compound": "CC(C)C[C@H](NC(=O)[C@H](Cc1c(F)c(F)c(F)c(F)c1F)NC(=O)c1cnccn1)B1OC2C[C@@H]3C[C@@H](C3(C)C)[C@]2(C)O1 (stereo partly drawn)", "numeric result": 121}

We next turn to a different compound, shown below.
Query: I would be grateful if you could share the reported Activity for `CC(C)C[C@H](NC(=O)[C@H](Cc1ccccc1)NC(=O)[C@H](Cc1cc(C(F)(F)F)cc(C(F)(F)F)c1)NC(=O)[C@H](Cc1ccccc1)N=[N+]=[N-])C(=O)[C@@]1(C)CO1` .
Response: 98.4
